# Measurement Notes: activity coefficient (dimensionless); of the first substance listed, at infinite dilution; xn = mol fraction of the nth substance listed
# Condition Set: 348.2 K; 101 kPa; Liquid; Chromatography; x1 = 0
activity coefficient values for the molecules below.
The answer should be written as a number, with no unit following it.

Molecule: CCO [ethanol] + OCCOCCO
activity coefficient: 1.46

Reported activity coefficient for CCCCCCCC [octane] + OCCOCCO was 168

Reported activity coefficient for CCCCCCCCC [nonane] + OCCOCCOCCO was 98.9

Reported activity coefficient for CCCCCCC [heptane] + OCCOCCO was 122

###

# Measurement Notes: activity coefficient (dimensionless); of the first substance listed, at infinite dilution; xn = mol fraction of the nth substance listed
# Condition Set: 348.2 K; 101 kPa; Liquid; Chromatography; x1 = 0
Experimental Endpoint: activity coefficient

These recorded examples may help you get a feel for the data.
Compound: CCCCC [pentane] + OCCOCCOCCO
Measured: 30.8

Compound: CC(C)O [propan-2-ol] + OCCOCCOCCO
Measured: 1.4

Compound: C#CCCCCCC [1-octyne] + OCCOCCO
Measured: 29.7

Reported activity coefficient for C#CCCCC [1-hexyne] + OCCOCCOCCO was 7.03

Reported activity coefficient for CCCCCCCCC [nonane] + OCCOCCO was 230

Reported activity coefficient for C=CCCC [1-pentene] + OCCOCCOCCO was 16.1

Reported activity coefficient for C1CCCCCC1 [cycloheptane] + OCCOCCOCCO was 22.3

Reported activity coefficient for C#CCCCCC [1-heptyne] + OCCOCCO was 20.8

Reported activity coefficient for CCCO [propan-1-ol] + OCCOCCO was 1.77

Every entry's value here was drawn from the NIST ThermoML archive (doi:10.1016/j.jct.2013.05.011).
